Sourced from patent US20010005714A1

Kindly supply the reported Inhibition of Cholesteryloleate Uptake In. % values for the records listed here.
# System: BBMVs
# Assay comment: Inhibition of cholesteryl oleate uptake by BBMVs by peptides of varying lengths (Example 8)
# Format: biochemical
# Test context: 120 μg peptide/ml; donor 0.05 mg total lipid/ml, acceptor 5 mg protein/ml; 23° C.
# Experimental: going from one peptide to the other (top→bottom) 3 amino acids were removed from the N-terminus. The inhibitory effect of the four peptides listed above were compared at 120 μg peptide/ml. The lipid uptake by BBMVs was measured in the presence of 120 μg peptide/ml each as described below. Donor and acceptor particles dispersed in Tris/NaCl buffer were centrifuged in a Beckman airfuge at 115000 g is for 2 min at 4° C. […]
Write the number in % without appending the unit.

[ask] Note down Inhibition of Cholesteryloleate Uptake In. % recorded for Ac-Asp-Trp-Leu-Lys-Alα-Phe-Tyr-Asp-Lys-Val-Alα -Glu-Lys-Leu-Lys-Glu-Alα-Phe-NH2 [Ac-18A-NH2, amphipathic α-helix of class A peptide, N-acetylated and C-amidated 18A]
[reply] 100

[ask] Report measured Inhibition of Cholesteryloleate Uptake In. %; entry is CH3CO—VAEKLKEAF—NH2 (Ac-VAEKLKEAF-NH2) [Ac-9A-NH2]
[reply] 0

[ask] Specify Inhibition of Cholesteryloleate Uptake In. % for Ac-Lys-Alα-Phe-Tyr-Asp-Lys-Val-Alα-Glu-Lys-Leu-Lys-Glu-Alα α-Phe-NH2 (Ac-KAFYDKVAEKLKEAF-NH2) [Ac-15A-NH2] and stop.
[reply] 85

[ask] Using the record for CH3CO—YDKVAEKLKEAF—NH2 (Ac-YDKVAEKLKEAF-NH2) [Ac-12A-NH2] , state its measured Inhibition of Cholesteryloleate Uptake In. %.
[reply] 20
